Hey, just so you know, these numbers are from PubChem BioAssay AID330.

Give T/C for every item shown.
- System: P388 leukemia ip, CD2F1 mice, survival T/C
- method: NCI In Vivo Anticancer Drug Screen. Data for tumor model P388 Leukemia (intraperitoneal) in CD2F1 (CDF1) mice
- measurementSetup: endpoint: median survival time; dose: 100.0 mg/kg/injection; schedule: Q01DX009 (ip); vehicle: other; higher = longer survival
Toxic doses and inconclusive results are not listed.

Read the entry COc1cc(Br)c(C(=O)N2CCCc3ccccc32)cc1OC and write its reported T/C.
91 % of control

Give reported T/C value for Nc1ccc2[nH]c3cnccc3c2c1
103 % of control

Look up and state reported T/C for Cc1cc2cc3c(=O)[nH]c(=O)cc-3n(CC(O)C(O)C(O)CO)c2cc1C (stereo not drawn)
95 % of control

Using known records, supply T/C for Nc1ccc(NC(=O)c2ccc([N+](=O)[O-])cc2)cc1
106 % of control

Tell me T/C reported for O=C(c1ccccc1)N1CC2CCC1CN2C(=O)c1ccccc1
100 % of control

In one line, give reported T/C of the entry CCCCCCCCCCCCCCCCCSCc1ccc(Nc2ccccc2)cc1 .
116 % of control

Supply measured T/C of C=C(N=[N+]=[N-])c1ccccc1 in your reply.
107 % of control

Note down T/C recorded for S=c1cc[nH]c2ccccc12
110 % of control
